assayed.target: cyclin D1/cdk 4 enzyme (Homo sapiens, UniProt P11802)
Construct: made in house; host or cells: Sf9 insect cells, recombinant baculovirus
Sequence (P11802 whole entry, species assumed): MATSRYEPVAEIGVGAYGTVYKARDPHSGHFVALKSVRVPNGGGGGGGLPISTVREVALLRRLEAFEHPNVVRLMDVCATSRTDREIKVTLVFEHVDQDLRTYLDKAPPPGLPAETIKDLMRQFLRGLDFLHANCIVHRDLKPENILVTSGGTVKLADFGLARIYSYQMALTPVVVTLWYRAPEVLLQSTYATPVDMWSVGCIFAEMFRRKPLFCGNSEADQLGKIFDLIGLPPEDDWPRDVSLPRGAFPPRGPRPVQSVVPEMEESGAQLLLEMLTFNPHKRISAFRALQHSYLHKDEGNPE
Sequence (P24385 whole entry partner, species assumed): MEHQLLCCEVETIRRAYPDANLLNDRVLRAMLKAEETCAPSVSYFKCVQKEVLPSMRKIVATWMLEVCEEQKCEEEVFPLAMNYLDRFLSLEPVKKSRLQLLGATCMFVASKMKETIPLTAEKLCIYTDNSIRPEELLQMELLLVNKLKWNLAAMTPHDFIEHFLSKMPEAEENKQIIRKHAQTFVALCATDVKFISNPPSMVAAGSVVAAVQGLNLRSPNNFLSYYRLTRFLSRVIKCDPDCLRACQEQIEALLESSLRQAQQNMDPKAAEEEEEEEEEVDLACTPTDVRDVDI
assay.details: CDK4 ELISA kinase assay (phospho-Rb ser 795 detection)
Type: biochemical
experimental.conditions: In Vitro Enzyme Assay, cyclin D1/cdk 4, read-out: CDK4 IC50
observation.type: IC50 (µM)

>>> recorded_value("CN(C)C1CCN(Cc2ccc(N/C=C3\\C(=O)NC(=O)c4ccc(-c5ccc(F)cc5)cc43)cc2)C1 (stereo not shown)")
0.2
>>> recorded_value("N#CCc1ccc(NC=C2C(=O)NC(=O)c3ccc(-c4cccc(C#N)c4)cc32)cc1")
27.5
>>> recorded_value("N#CCc1ccc(NC=C2C(=O)NC(=O)c3ccc(-c4ccc[nH]4)cc32)cc1")
0.2
>>> recorded_value("NS(=O)(=O)c1ccc(CNC=C2C(=O)NC(=O)c3ccc(-c4cccc5cccnc45)cc32)cc1")
32.3

---

assayed.target: cyclin D1/cdk 4 enzyme (Homo sapiens)
Construct: made in house; host or cells: Sf9 insect cells, recombinant baculovirus
assay.details: CDK4 ELISA kinase assay (phospho-Rb ser 795 detection)
Format: biochemical
experimental.conditions: In Vitro Enzyme Assay, cyclin D1/cdk 4, read-out: CDK4 IC50
pIC50: −log10 of the molar value.
Tag: class 1 if measured pIC50 is not below 6, class 0 if it is.

>>> category_label("C[C@@H]1CN(c2ccc(N/C=C3\\C(=O)NC(=O)c4ccc(Br)cc43)nc2)C[C@H](C)N1")
"class 0"
>>> category_label("Cc1ccccc1-c1ccc2c(c1)C(=CNCc1ccc(S(N)(=O)=O)cc1)C(=O)NC2=O")
"class 0"
>>> category_label("CN(CCN1CCCC1)c1ccc(N/C=C2\\C(=O)NC(=O)c3ccc(Br)cc32)cc1")
"class 0"
>>> category_label("O=C1NC(=O)c2ccc(C=Cc3ccncc3)cc2C1=CNCc1ccc(O)c(O)c1")
"class 1"
>>> category_label("O=C1NC(=O)c2ccc(I)cc2/C1=C/NCc1ccn(-c2ccccc2)c(=O)c1 [Example 518]")
"class 1"
>>> category_label("CN1CCN(c2ccc(NC=C3C(=O)NC(=O)c4ccc(C=Cc5ccccn5)cc43)cc2)CC1")
"class 0"

---

assayed.target: cyclin E/CDK2 enzyme (Homo sapiens, UniProt P24941)
Construct: made in house; host or cells: Sf9 insect cells, recombinant baculovirus
assay.details: CDK2 ELISA kinase assay (phospho-Rb ser 795 detection)
Assay type: biochemical
experimental.conditions: In Vitro Enzyme Assay, cyclin E/CDK2, read-out: CDK2 IC50
pIC50: −log10 of the molar value.
observation.type: pIC50

>>> recorded_value("O=C1NC(=O)c2ccccc2C1=CNc1ccc(O)c2ncccc12 [Example 569]")
5.21
>>> recorded_value("COc1ccc(CNC=C2C(=O)NC(=O)c3ccc(C=Cn4ccnc4)cc32)cc1O [Example 734]")
5.30
>>> recorded_value("N#Cc1ccc(-c2ccc3c(c2)C(=CNc2ccc(CN4CCCC4)cc2)C(=O)NC3=O)cc1 [Example 839]")
4.41
>>> recorded_value("O=C1NC(=O)c2ccc(I)cc2/C1=C/NCc1ccn(-c2ccoc2)c(=O)c1 [Example 525]")
5.59
>>> recorded_value("COc1ccccc1-c1ccc2c(c1)C(=CNCc1ccc(O)c(O)c1)C(=O)NC2=O [Example 766]")
4.84
>>> recorded_value("O=C1NC(=O)c2ccc(I)cc2/C1=C/NCc1cc(O)c(-c2ccoc2)cc1F [Example 520]")
4.92
>>> recorded_value("O=C1NC(=O)c2ccc(C3CCCC3)cc2/C1=C/NCc1cc(O)c(-c2ccoc2)cn1 [Example 537]")
5.89
>>> recorded_value("N=C(N)c1ccc(NC=C2C(=O)NC(=O)c3ccccc32)cc1 [Example 547]")
5.18
>>> recorded_value("N#Cc1cccc(-c2ccc3c(c2)C(=CNCc2ccc(O)c(O)c2)C(=O)NC3=O)c1 [Example 785]")
4.42
>>> recorded_value("COc1ccc(NC=C2C(=O)NCc3cc(-c4cc[nH]c4)ccc32)cc1 [Example 850]")
4.71
>>> recorded_value("NS(=O)(=O)c1ccc(CNC=C2C(=O)NC(=O)c3ccc(C=Cn4ccnc4)cc32)cc1 [Example 658]")
4.64
>>> recorded_value("N#Cc1ccc(-c2ccc3c(c2)C(=CNCc2ccc(S(N)(=O)=O)cc2)C(=O)NC3=O)cc1 [Example 755]")
5.11
>>> recorded_value("O=C1NC(=O)c2ccccc2C1=CNC(Cc1ccc(O)c(O)c1)C(=O)O (stereo not drawn) [Example 567]")
4.79
>>> recorded_value("O=C1NC(=O)c2ccc(I)cc2/C1=C/NCc1ccc(-c2ccoc2)c(O)c1 [Example 506]")
5.33
>>> recorded_value("CCCOc1cnc(CN/C=C2\\C(=O)NC(=O)c3ccc(-c4ccco4)cc32)cc1O [Example 502]")
5.55
>>> recorded_value("O=C1NC(=O)c2ccc(C=CC3CCCCC3)cc2C1=CNCc1ccc(O)c(O)c1 [Example 664]")
4.50
>>> recorded_value("O=C1NC(=O)c2ccc(-c3ccc(CO)cc3)cc2C1=CNCc1ccc(O)c(O)c1 [Example 817]")
5.15
>>> recorded_value("CN(C)Cc1cccc(-c2ccc(CN/C=C3\\C(=O)NC(=O)c4ccc(I)cc43)cc2O)c1 [Example 519]")
5.19
>>> recorded_value("COc1cccc(-c2ccc3c(c2)C(=CNCc2ccc(O)c(O)c2)C(=O)NC3=O)c1 [Example 765]")
4.94
>>> recorded_value("CCCOc1cn(C)c(CN/C=C2\\C(=O)NC(=O)c3ccc(I)cc32)cc1=O [Example 471]")
4.54
>>> recorded_value("NS(=O)(=O)c1ccc(CNC=C2C(=O)NC(=O)c3ccc(-c4ccc(F)cc4)cc32)cc1 [Example 738]")
4.49
>>> recorded_value("CN1CCN(c2ccc(NC=C3C(=O)NC(=O)c4ccc(-c5ccc6[nH]ccc6c5)cc43)cc2)CC1 [Example 671]")
4.42
>>> recorded_value("N=C(N)c1ccc(NC=C2C(=O)NCc3cc(Br)ccc32)cc1 [Example 861]")
5.44

Every entry's value here was drawn from patent US7713994B2.
